# Tested on: velvetleaf
# Method: Test B pre/postemergence velvetleaf
# Type: in vivo, Abutilon theophrasti
# Test Parameters: Postemergence, Rate 125 g/ha; scale of 0 to 10 where 0 is no effect and 10 is complete control
Attribute: Plant response rating, Velvetleaf

Completed entries (count: 5):
{"columns": ["Compound", "Reading"],
 "data": [
  ["CC(C)N(C(=O)n1oc(=O)n(CNC(=O)c2ccccc2)c1=O)c1ccccc1 [Compound 620]", 0],
  ["CC(C)N(C(=O)n1oc(=O)n(C(CF)CF)c1=O)c1ccc(F)cc1F [Compound 595]", 4],
  ["CCOP(=O)(Cn1c(=O)on(C(=O)N(c2ccc(Cl)cc2)C(C)C)c1=O)OCC [Compound 599]", 0],
  ["COCCn1c(=O)on(C(=O)N(c2ccc(F)cc2F)C(C)C)c1=O [Compound 628]", 6],
  ["CCC(C)n1c(=O)on(C(=O)N(c2ccccc2)C(C)C)c1=O (stereo not shown) [Compound 611]", 3]
]}

(Q) Using the record for CCC(C)n1c(=O)on(C(=O)N(c2ccccc2)C(C)C)c1=O (stereo not shown) [Compound 610] , state its measured Plant response rating, Velvetleaf.
(A) 3

(Q) Using the record for C=C(Cl)Cn1c(=O)on(C(=O)N(c2ccc(F)cc2F)C(C)C)c1=O [Compound 634] , state its measured Plant response rating, Velvetleaf.
(A) 0
